test system: A. niger; test: Minimum inhibitory concentration for fungi, tube dilution, A. niger (Table IV); settings: Aspergillus niger, 48 h, read-out: Minimum Inhibitory Concentration, A. niger
Observable: log10 MIC (log10 of the value in µg/mL)
Parameter value (number): base-10 log of MIC in µg/mL.

Illustrative cases are given below, each with its answer.
OC(Cc1ccccc1)(Cc1ccccc1)CN1CCN(CCN2CCCCC2)CC1 [LIX] = 1.81
CC(N1CCN(CCN2CCN(C)CC2)CC1)C(O)(Cc1ccccc1)Cc1ccccc1 (stereo not shown) [X] = 1.20
CC(C(=Cc1ccccc1)Cc1ccccc1)N1CCN(CCN2CCCCC2)CC1 (stereo not shown) [XXX] = 1.51
CC(C(=Cc1ccccc1)Cc1ccccc1)N1CCN(CCN2CCOCC2)CC1 (stereo not shown) [XXXI] = 1.81
CC1CCN(CCN2CCN(C(C)C(O)(Cc3ccccc3)Cc3ccccc3)CC2)CC1 (stereo not shown) [IX] = 2.11

Task: What value of log10 MIC has been reported for the following compound? CC(N1CCN(C)CC1)C(O)(Cc1ccccc1)Cc1ccccc1 (stereo not shown) [LI]
Result: 2.41

The measured values listed here are drawn from patent US3947411A.
